Experimental system: Serine protease 1 (Homo sapiens, UniProt P07477)
Sequence (P07477 whole entry): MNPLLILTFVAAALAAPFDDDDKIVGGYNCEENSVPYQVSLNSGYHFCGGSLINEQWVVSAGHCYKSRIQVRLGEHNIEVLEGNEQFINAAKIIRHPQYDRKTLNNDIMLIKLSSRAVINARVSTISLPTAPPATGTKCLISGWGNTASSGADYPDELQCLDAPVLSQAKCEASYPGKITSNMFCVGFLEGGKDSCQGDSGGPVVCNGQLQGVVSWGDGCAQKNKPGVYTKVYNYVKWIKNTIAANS
Where a SMILES comes first, the peptide text is derived from it. Bridges are numbered along the chain shown (N, C = ends). [ ]: non-standard residue; d: D form. 2Nal = N[C@@H](Cc1ccc2ccccc2c1)C(=O)O
Recorded pKi, one value per entry.
In textbook form, pKi equals minus log to base ten of the concentration in mol/L.

Compound	Experimental value
CC[C@H](C)[C@@H]1NC(=O)[C@@H]2CCCN2C(=O)[C@@H]2CCCN2C(=O)CNC(=O)[C@H](CO)NC(=O)[C@H](CCCNC(=N)N)NC(=O)[C@H]([C@@H](C)O)NC(=O)[C@@H]2CSSC[C@H](NC1=O)C(=O)N[C@@H](Cc1ccccc1)C(=O)N1CCC[C@H]1C(=O)N[C@@H](CC(=O)O)C(=O)NCC(=O)N[C@@H](CCCNC(=N)N)C(=O)N2 (cyclo(CFPDGRCTRSGPPI); disulfide 1-7)	7.00

The record that follows has no pKi shown yet.
Field pKi (system: Serine protease 1 (Homo sapiens, UniProt P07477)) for entry CC[C@H](C)[C@@H]1NC(=O)[C@@H]2CCCN2C(=O)[C@@H]2CCCN2C(=O)[C@H](Cc2ccc3ccccc3c2)NC(=O)[C@H](CO)NC(=O)[C@H](CCCCN)NC(=O)[C@H]([C@@H](C)O)NC(=O)[C@@H]2CSSC[C@H](NC1=O)C(=O)N[C@@H](Cc1ccccc1)C(=O)N1CCC[C@H]1C(=O)N[C@@H](CC(=O)O)C(=O)NCC(=O)N[C@@H](CCCNC(=N)N)C(=O)N2 (cyclo([2Nal]PPICFPDGRCTKS); disulfide 5-11) = 9.06
